# subject of test: Peroxisome proliferator-activated receptor gamma (Homo sapiens)
# method summary: Agonist activity at PPARgamma in human HepG2 cells assessed as activation of PPRE at 10 ug/ml incubated for 24 hrs by dual luciferase reporter gene assay relative to pioglitazone
# Type: cell-based
Each entry below carries its recorded Activity.
Form entry: value (%) — number only.

Answered cases to consult:
{"chemical structure": "COC(=O)[C@@H](NC(=O)OCc1ccccc1)c1cccc(NC(=O)CCl)c1", "measured property": "Activity", "recorded result": 100}
{"chemical structure": "COC(=O)[C@@H](NC(=O)OCc1ccccc1)c1cccc(NC(=O)CCCl)c1", "measured property": "Activity", "recorded result": -3.5}
{"chemical structure": "CCCC(=O)Nc1cccc([C@H](NC(=O)OCc2ccccc2)C(=O)OC)c1", "measured property": "Activity", "recorded result": 11.2}
{"chemical structure": "CCOC(=O)[C@@H](NC(=O)OCc1ccccc1)c1cccc(NC(=O)CCl)c1", "measured property": "Activity", "recorded result": -23.9}

Per the records, this compound ( CN(CCO)C(=O)[C@@H](NC(=O)OCc1ccccc1)c1cccc(NC(=O)CCl)c1 ) has Activity equal to 124

Kindly note the recorded Activity for COC(=O)[C@@H](NC(=O)OCc1ccccc1)c1cccc(NC(=O)CN2C(=O)c3ccccc3C2=O)c1 , which is 14.6

====

# subject of test: Peroxisome proliferator-activated receptor gamma (Homo sapiens)
# method summary: Agonist activity at PPARgamma in human HepG2 cells assessed as activation of PPRE incubated for 24 hrs by dual luciferase reporter gene assay
// reported pEC50 per item
FYI, pEC50 means -log10 of a concentration in mol per litre.

{"chemical structure": "CN(CCO)C(=O)[C@@H](NC(=O)OCc1ccccc1)c1cccc(NC(=O)CCl)c1", "recorded result": 5.05}

With those in mind, consider the next molecule.
The recorded pEC50 for COC(=O)[C@@H](NC(=O)OCc1ccccc1)c1cccc(NC(=O)CCl)c1 is 4.65

====

# inhibition values compiled below
# subject of test: Dipeptidyl peptidase 4 (Homo sapiens)
# method summary: Inhibition of recombinant human C-terminal His-tagged DPP-4 (29 to 766 residues) expressed in Sf9 insect cells at 10 ug/ml using dipeptidyl peptidase […] as substrate incubated for 10 mins followed by substrate addition measured after 40 mins by fluorescence assay relative to control
All answers are understood in %, so give the number only.

{"chemical structure": "COC(=O)[C@@H](NC(=O)OCc1ccccc1)c1cccc(NC(=O)CNc2ccc(S(=O)(=O)Nc3cc(C)on3)cc2)c1", "subject of test": "Dipeptidyl peptidase 4 (Homo sapiens)", "inhibition [%]": 5.87}
{"chemical structure": "COC(=O)[C@@H](NC(=O)OCc1ccccc1)c1cccc(NC(=O)CSc2nc3ccccc3[nH]2)c1", "subject of test": "Dipeptidyl peptidase 4 (Homo sapiens)", "inhibition [%]": 8.99}
{"chemical structure": "CC(C)(C)OC(=O)N1CCN(CC(=O)Nc2cccc([C@H](NC(=O)OCc3ccccc3)C(=O)O)c2)CC1", "subject of test": "Dipeptidyl peptidase 4 (Homo sapiens)", "inhibition [%]": 5.26}
{"chemical structure": "O=C(CSc1nc2ccccc2[nH]1)Nc1cccc([C@H](NC(=O)OCc2ccccc2)C(=O)O)c1", "subject of test": "Dipeptidyl peptidase 4 (Homo sapiens)", "inhibition [%]": -7.54}

Switching to the query record.
Briefly, inhibition measured for COC(=O)[C@@H](NC(=O)OCc1ccccc1)c1cccc(NC(=O)CN2CCN(C(=O)OC(C)(C)C)CC2)c1 : -6.12

====

Each item that follows carries a reported Activity.
# subject of test: Peroxisome proliferator-activated receptor gamma (Homo sapiens)
# method summary: Agonist activity at PPARgamma in human HepG2 cells assessed as activation of PPRE at 10 ug/ml incubated for 24 hrs by dual luciferase reporter gene assay relative to control
# Format: cell-based
Quick note: give the figure in %, leave out the unit.

# example entries with known answers
{"chemical structure": "COC(=O)[C@@H](NC(=O)OCc1ccccc1)c1cccc(NC(=O)CN2C(=O)c3ccccc3C2=O)c1", "measurement unit": "%", "Activity": 11.9}
{"chemical structure": "O=C(CN1C(=O)c2ccccc2C1=O)Nc1cccc([C@H](NC(=O)OCc2ccccc2)C(=O)O)c1", "measurement unit": "%", "Activity": 39.9}
{"chemical structure": "CNC(=O)[C@@H](NC(=O)OCc1ccccc1)c1cccc(NC(=O)CCl)c1", "measurement unit": "%", "Activity": -18.8}

Here is another molecule to look at.
Recorded result, COC(=O)[C@@H](NC(=O)OCc1ccccc1)c1cccc(NC(=O)Cn2cnnn2)c1 , Activity: 14.4

====

# Organism: Rattus norvegicus
# method summary: Inhibition of rat small intestine alpha-glucosidase at 10 ug/ml using maltose/glucose as substrate incubated for 10 mins followed by substrate addition measured after 10 mins relative to control
measured property: inhibition (%)
Quick reminder: number only, in %, skip the unit.

# annotated cases, reported inhibition shown
{"chemical structure": "O=C(CCl)Nc1cccc([C@H](NC(=O)OCc2ccccc2)C(=O)O)c1", "measurement unit": "%", "inhibition": 17.7}
{"chemical structure": "COC(=O)[C@@H](NC(=O)OCc1ccccc1)c1cccc(NC(=O)CN2CCN(C(=O)OC(C)(C)C)CC2)c1", "measurement unit": "%", "inhibition": 15.5}

Proceeding to the next molecule to report its inhibition.
Record CC(C)(C)OC(=O)N1CCN(CC(=O)Nc2cccc([C@H](NC(=O)OCc3ccccc3)C(=O)O)c2)CC1 . Reported inhibition: 13.7

====

List of Activity values.
# subject of test: Peroxisome proliferator-activated receptor gamma (Homo sapiens)
# method summary: Agonist activity at PPARgamma in human HepG2 cells assessed as activation of PPRE at 10 ug/ml incubated for 24 hrs by dual luciferase reporter gene assay relative to control
# Assay type: cell-based
The reply should contain only the number, in %.

{"chemical structure": "Cc1cc(NS(=O)(=O)c2ccc(NCC(=O)Nc3cccc([C@H](NC(=O)OCc4ccccc4)C(=O)O)c3)cc2)no1", "subject of test": "Peroxisome proliferator-activated receptor gamma (Homo sapiens)", "measurement unit": "%", "Activity": 40.6}
{"chemical structure": "CCNC(=O)[C@@H](NC(=O)OCc1ccccc1)c1cccc(NC(=O)CCl)c1", "subject of test": "Peroxisome proliferator-activated receptor gamma (Homo sapiens)", "measurement unit": "%", "Activity": -20.1}

Field Activity (system: Peroxisome proliferator-activated receptor gamma (Homo sapiens)) for entry CCCC(=O)Nc1cccc([C@H](NC(=O)OCc2ccccc2)C(=O)OC)c1 = 12

Reported Peroxisome proliferator-activated receptor gamma (Homo sapiens) Activity for item CN(CCO)C(=O)[C@@H](NC(=O)OCc1ccccc1)c1cccc(NC(=O)CCl)c1 was 120

The value of Activity recorded for CCC(=O)Nc1cccc([C@H](NC(=O)OCc2ccccc2)C(=O)OC)c1 when tested on Peroxisome proliferator-activated receptor gamma (Homo sapiens) reads 18.3

====

# subject of test: Peroxisome proliferator-activated receptor gamma (Homo sapiens) (UniProt P37231)
# method summary: Agonist activity at PPARgamma in human HepG2 cells assessed as activation of PPRE at 10 ug/ml incubated for 24 hrs by dual luciferase reporter gene assay relative to control
# Assay type: cell-based
The entries below come with measured Activity values attached.
Supply the numeric figure in %, leaving out any unit text.

get_value(item= O=C(CSc1nc2ccccc2[nH]1)Nc1cccc([C@H](NC(=O)OCc2ccccc2)C(=O)O)c1 , readout=Activity) returns 32.9

According to the records, this compound COC(=O)[C@@H](NC(=O)OCc1ccccc1)c1cccc(NC(=O)CN2CCN(C(=O)OC(C)(C)C)CC2)c1 displays Activity of -8.27

====

# subject of test: Peroxisome proliferator-activated receptor gamma (Homo sapiens)
# Sequence (whole entry): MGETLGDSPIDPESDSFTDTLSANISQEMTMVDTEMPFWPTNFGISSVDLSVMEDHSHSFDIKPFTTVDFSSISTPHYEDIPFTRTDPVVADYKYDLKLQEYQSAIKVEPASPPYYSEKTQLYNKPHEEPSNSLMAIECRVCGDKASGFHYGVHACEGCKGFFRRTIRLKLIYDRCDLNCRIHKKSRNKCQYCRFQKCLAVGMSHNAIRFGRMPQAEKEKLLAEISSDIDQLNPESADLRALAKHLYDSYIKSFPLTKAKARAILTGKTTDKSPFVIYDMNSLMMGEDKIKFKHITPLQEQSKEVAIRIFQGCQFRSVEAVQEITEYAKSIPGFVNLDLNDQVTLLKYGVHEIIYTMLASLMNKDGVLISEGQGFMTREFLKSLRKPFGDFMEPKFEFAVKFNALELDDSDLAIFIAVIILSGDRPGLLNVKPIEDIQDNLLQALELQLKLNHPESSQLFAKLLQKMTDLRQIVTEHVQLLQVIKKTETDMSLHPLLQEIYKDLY
# method summary: Agonist activity at PPARgamma in human HepG2 cells assessed as activation of PPRE at 10 ug/ml incubated for 24 hrs by dual luciferase reporter gene assay relative to pioglitazone
# Type: cell-based
Decision: Activity >= 10% yields Met, all other cases yield Not met.

Examples from the recorded data:
{"chemical structure": "CC(C)(C)OC(=O)N1CCN(CC(=O)Nc2cccc([C@H](NC(=O)OCc3ccccc3)C(=O)O)c2)CC1", "category label": "Met"}
{"chemical structure": "CNC(=O)[C@@H](NC(=O)OCc1ccccc1)c1cccc(NC(=O)CCl)c1", "category label": "Not met"}
{"chemical structure": "O=C(CSc1nc2ccccc2[nH]1)Nc1cccc([C@H](NC(=O)OCc2ccccc2)C(=O)O)c1", "category label": "Met"}
{"chemical structure": "CCNC(=O)[C@@H](NC(=O)OCc1ccccc1)c1cccc(NC(=O)CCl)c1", "category label": "Not met"}
{"chemical structure": "COC(=O)[C@@H](NC(=O)OCc1ccccc1)c1cccc(NC(=O)CCCCl)c1", "category label": "Met"}

Decide: Activity of CCC(=O)Nc1cccc([C@H](NC(=O)OCc2ccccc2)C(=O)OC)c1 >= 10%?
Met

Record COCC(=O)Nc1cccc([C@H](NC(=O)OCc2ccccc2)C(=O)OC)c1 ; criterion: Activity no lower than 10%. Met?
Not met

Quick check: does COC(=O)[C@@H](NC(=O)OCc1ccccc1)c1cccc(NC(=O)Cn2nnnc2C)c1 have Activity greater than or equal to 10%?
Met

Could you verify whether the entry COC(=O)[C@@H](NC(=O)OCc1ccccc1)c1cccc(NC(=O)Cn2nc(C)cc2C)c1 shows Activity of no less than 10%?
Not met

Given the entry CCCCOC(=O)[C@@H](NC(=O)OCc1ccccc1)c1cccc(NC(=O)CCl)c1 , answer whether its Activity meets or surpasses 10%.
Not met

Test whether the compound COC(=O)[C@@H](NC(=O)OCc1ccccc1)c1cccc(NC(C)=O)c1 records Activity of 10% or higher.
Met

Does COC(=O)[C@@H](NC(=O)OCc1ccccc1)c1cccc(NC(=O)CN2CCN(C(=O)OC(C)(C)C)CC2)c1 have a reported Activity of at least 10%?
Not met

Form field: Activity at least 10%? Entry: COC(=O)[C@@H](NC(=O)OCc1ccccc1)c1cccc(NC(=O)Cn2cnnn2)c1
Met

Check if Activity >= 10% (inclusive). Item: O=C(CCl)Nc1cccc([C@H](NC(=O)OCc2ccccc2)C(=O)NO)c1
Not met

hey, is Activity for this one >= 10%? COC(=O)[C@@H](NC(=O)OCc1ccccc1)c1cccc(NC(=O)Cn2cnc3ccccc32)c1
Not met
